Data provenance: patent US20260242735A1

- TARGET_OR_SYSTEM: human CD33 G156A (human, UniProt P20138 18-364)
- Sequence (P20138 18-364 G156A limits assumed): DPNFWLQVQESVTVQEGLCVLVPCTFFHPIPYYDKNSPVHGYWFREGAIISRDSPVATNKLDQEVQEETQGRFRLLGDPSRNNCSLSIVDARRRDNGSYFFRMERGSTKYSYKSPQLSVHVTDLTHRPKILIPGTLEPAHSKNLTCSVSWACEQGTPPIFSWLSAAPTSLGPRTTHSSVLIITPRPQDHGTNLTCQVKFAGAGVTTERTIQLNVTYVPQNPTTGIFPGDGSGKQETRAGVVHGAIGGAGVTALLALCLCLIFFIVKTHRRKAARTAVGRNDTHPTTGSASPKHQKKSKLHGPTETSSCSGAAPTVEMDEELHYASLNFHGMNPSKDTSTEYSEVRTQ
- METHOD_SUMMARY: flow cytometry on HEK293-T, alanine scan
MEASURE_NAME: Mean % WT Binding (% WT binding)
Answers are plain numbers, in % WT binding.

# example entries with known answers
{"columns": ["BINDER", "MEASURE_NAME", "DATA_VALUE"],
 "data": [
  ["Refmab #2 (antibody, V domains shown, The alanine scan used IgG or Fab) VH: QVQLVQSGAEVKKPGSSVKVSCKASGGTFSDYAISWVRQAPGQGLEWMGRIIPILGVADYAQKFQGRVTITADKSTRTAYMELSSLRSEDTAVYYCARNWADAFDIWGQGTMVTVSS VL: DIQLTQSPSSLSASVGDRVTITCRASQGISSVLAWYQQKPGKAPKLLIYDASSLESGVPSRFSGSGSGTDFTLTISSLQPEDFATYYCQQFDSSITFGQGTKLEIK", "Mean % WT Binding", 99.4],
  ["Refmab #4 (antibody, V domains shown, The alanine scan used IgG or Fab) VH: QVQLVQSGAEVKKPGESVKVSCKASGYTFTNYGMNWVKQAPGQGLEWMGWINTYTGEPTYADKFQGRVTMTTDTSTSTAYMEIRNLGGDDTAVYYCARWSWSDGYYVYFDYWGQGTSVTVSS VL: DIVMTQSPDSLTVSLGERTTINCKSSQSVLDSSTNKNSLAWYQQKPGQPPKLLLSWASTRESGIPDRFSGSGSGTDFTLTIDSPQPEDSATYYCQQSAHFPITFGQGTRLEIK", "Mean % WT Binding", 67.2],
  ["Refmab #3 (antibody, V domains shown, The alanine scan used IgG or Fab) VH: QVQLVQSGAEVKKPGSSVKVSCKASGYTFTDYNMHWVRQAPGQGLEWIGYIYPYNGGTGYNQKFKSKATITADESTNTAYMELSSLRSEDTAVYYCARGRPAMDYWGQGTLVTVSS VL: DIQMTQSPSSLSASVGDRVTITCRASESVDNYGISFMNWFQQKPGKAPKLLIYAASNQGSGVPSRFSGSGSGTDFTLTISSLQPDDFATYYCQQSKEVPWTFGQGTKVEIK", "Mean % WT Binding", 116]
]}

Endpoint output: Mean % WT Binding of Refmab #1 (antibody, V domains shown, The alanine scan used IgG or Fab; also called hP67.6) VH: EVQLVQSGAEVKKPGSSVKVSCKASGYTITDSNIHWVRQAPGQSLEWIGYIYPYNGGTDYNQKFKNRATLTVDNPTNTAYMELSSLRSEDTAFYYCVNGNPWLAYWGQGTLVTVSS VL: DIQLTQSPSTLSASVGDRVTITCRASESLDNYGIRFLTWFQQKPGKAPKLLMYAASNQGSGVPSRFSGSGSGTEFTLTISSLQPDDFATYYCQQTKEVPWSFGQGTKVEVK . Value? 83.4
